Molecular target: T1, Placenta Growth Factor (PlGF), human (human, UniProt P49763 21-149)
T1 chain: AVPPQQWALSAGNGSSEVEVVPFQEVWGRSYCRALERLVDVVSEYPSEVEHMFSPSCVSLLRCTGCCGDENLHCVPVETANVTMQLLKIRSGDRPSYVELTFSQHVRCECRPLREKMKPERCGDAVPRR
Test: ELISA
pEC50 values for the binders below.
The read-out pEC50 is expressed as -log10 of concentration in moles per litre.

BINDER	pEC50
HC 3/SLC 5 (antibody) chain 1: GQGTLVTVSSASTQPVLHQPPAMSSALGTTIRLTCTLRNDHDIGVYSVYWYQQRPGHPPRFLLRYFSQSDKSQGPQVPPRFSGSKDVARNRGYLSISELQPEDEAMYYCAMGARSRCWPRGFQSKHNSVTHVFGSGTQLTVLSQPKATPSVTLFPPSSEELQANKATLVCLMNDFYPGILTVTWKADGTPITQGVEMTTPSKQSNNKYAASSYLSLTPEQWRSRRSYSCQVMHEGSTVEKTVAPAECS chain 2: MSWAPVLLMLFVYCTGCGPQPVLHQPPAMSSALGTTIRLTCTLRNDHDIGVYSVYWYQQRPGHPPRFLLRYFSQSDKSQGPQVPPRFSGSKDVARNRGYLSISVTHVFGSGTQLTVLSQPKAQVQLVQ	9.60
HC 6/SLC 6 (antibody) chain 1: GQGTLVTVSSASTKGPQPVLHQPPAMSSALGTTIRLTCTLRNDHDIGVYSVYWYQQRPGHPPRFLLRYFSQSDKSQGPQVPPRFSGSKDVARNRGYLSISELQPEDEAMYYCAMGARSRCWPRGFQSKHNSVTHVFGSGTQLTVLSQPKATPSVTLFPPSSEELQANKATLVCLMNDFYPGILTVTWKADGTPITQGVEMTTPSKQSNNKYAASSYLSLTPEQWRSRRSYSCQVMHEGSTVEKTVAPAECS chain 2: MSWAPVLLMLFVYCTGCGPQPVLHQPPAMSSALGTTIRLTCTLRNDHDIGVYSVYWYQQRPGHPPRFLLRYFSQSDKSQGPQVPPRFSGSKDVARNRGYLSISVTHVFGSGTQLTVLSQPKATQVQLVQ	9.86

[Q] I have this binder here, HC 3/SLC 8 (antibody) chain 1: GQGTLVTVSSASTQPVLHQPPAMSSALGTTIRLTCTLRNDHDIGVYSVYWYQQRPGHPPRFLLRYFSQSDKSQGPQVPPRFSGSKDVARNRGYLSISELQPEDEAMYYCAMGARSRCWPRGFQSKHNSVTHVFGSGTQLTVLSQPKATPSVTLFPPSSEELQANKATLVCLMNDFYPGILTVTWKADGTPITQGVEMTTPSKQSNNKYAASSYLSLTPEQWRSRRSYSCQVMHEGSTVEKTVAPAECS chain 2: MSWAPVLLMLFVYCTGCGPQPVLHQPPAMSSALGTTIRLTCTLRNDHDIGVYSVYWYQQRPGHPPRFLLRYFSQSDKSQGPQVPPRFSGSKDVARNRGYLSISVTHVFGSGTQLTVLSQPKATPSQVQLVQ , and I need its recorded pEC50.
[A] 9.80

[Q] Now consider HC 7/SLC 6 (antibody) chain 1: GQGTLVTVSSASTKGPSQPVLHQPPAMSSALGTTIRLTCTLRNDHDIGVYSVYWYQQRPGHPPRFLLRYFSQSDKSQGPQVPPRFSGSKDVARNRGYLSISELQPEDEAMYYCAMGARSRCWPRGFQSKHNSVTHVFGSGTQLTVLSQPKATPSVTLFPPSSEELQANKATLVCLMNDFYPGILTVTWKADGTPITQGVEMTTPSKQSNNKYAASSYLSLTPEQWRSRRSYSCQVMHEGSTVEKTVAPAECS chain 2: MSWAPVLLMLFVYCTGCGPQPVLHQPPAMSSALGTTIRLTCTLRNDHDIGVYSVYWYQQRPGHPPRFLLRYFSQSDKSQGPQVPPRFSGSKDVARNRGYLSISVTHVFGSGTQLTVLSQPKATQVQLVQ .
[A] 9.82
